Exercise: for every item that follows, state its recorded IC50.
tgt: Human immunodeficiency virus type 1 reverse transcriptase (Human immunodeficiency virus 1, UniProt Q72547, L100I)
assay notes: Inhibitory activity against HIV rRT activity in HIV-1 mutant resistant to TIBO(L100I) strain
Number in µM, nothing else.

Ask | Recorded IC50 of COC(=O)c1cccn1S(=O)(=O)c1cc(Cl)ccc1N , please.
Reply | 7.4

Ask | Data request, read-out IC50, for CCOC(=O)c1cccn1S(=O)(=O)c1cc(Cl)ccc1N
Reply | 8.5

Ask | I would be grateful if you could share the reported IC50 for CCCOC(=O)c1cccn1S(=O)(=O)c1cc(Cl)ccc1N .
Reply | 10

----------
Please provide measured pIC50 for the entries that follow.
tgt: Human immunodeficiency virus type 1 reverse transcriptase (Human immunodeficiency virus 1, UniProt Q72547)
assay notes: Inhibitory activity against HIV rRT activity in wild type IIIB strain
Scale: negative log10 of molar concentration, which is what pIC50 denotes.

Ask | Param item = CCCOC(=O)c1cccn1S(=O)(=O)c1cc(Cl)ccc1N ; retrieve measured pIC50.
Reply | 6.40

Ask | Tell me the measured pIC50 of CC(C)=CCN1Cc2cccc3nc(S)n(c23)C[C@H]1C , please.
Reply | 6.05

Ask | Item CCOC(=O)c1cccn1S(=O)(=O)c1cc(C)ccc1N has what recorded pIC50?
Reply | 5.40

Ask | What value of pIC50 has been recorded for this entry: COC(=O)c1cccn1S(=O)(=O)c1cc(Cl)ccc1N
Reply | 6.35

Ask | Name the recorded pIC50 for CC(C)OC(=O)c1cccn1S(=O)(=O)c1cc(Cl)ccc1N .
Reply | 6.57

Ask | Please look up its pIC50: CCOC(=O)c1cccn1S(=O)(=O)c1cc(C)ccc1[N+](=O)[O-]
Reply | 5.30

Ask | Which measured pIC50 value corresponds to CCOC(=O)c1cccn1S(=O)(=O)c1cc(Cl)ccc1N ?
Reply | 6.40

Ask | Would you kindly share the measured pIC50 for C=CCOC(=O)c1cccn1S(=O)(=O)c1cc(Cl)ccc1N ?
Reply | 6.05

----------
tgt: Human immunodeficiency virus type 1 reverse transcriptase (Human immunodeficiency virus 1, UniProt Q72547, Y181C)
assay notes: Inhibitory activity against HIV rRT activity in mutant HIV-1 strain resistant to Nevirapine (Y181C)
Can you tell me pIC50 for the items I'm about to list?
Lab note — pIC50 values are minus log10 of concentrations in M.

Ask | Would you mind telling me what pIC50 value was observed for CCCOC(=O)c1cccn1S(=O)(=O)c1cc(Cl)ccc1N ?
Reply | 5.30

Ask | # input compound: CCOC(=O)c1cccn1S(=O)(=O)c1cc(Cl)ccc1N ; wanted: its pIC50
Reply | 5.12

Ask | Endpoint output: pIC50 of CC(C)=CCN1Cc2cccc3nc(S)n(c23)C[C@H]1C . Value?
Reply | 5.05

Ask | pIC50 for CC(C)OC(=O)c1cccn1S(=O)(=O)c1cc(Cl)ccc1N ?
Reply | 5.10

----------
Kindly supply the reported pIC50 values for the records listed here.
tgt: Human immunodeficiency virus type 1 reverse transcriptase (Human immunodeficiency virus 1, UniProt Q72547, L100I)
assay notes: Inhibitory activity against HIV rRT activity in HIV-1 mutant resistant to TIBO(L100I) strain
pIC50: −log10 of the molar value.

Ask | Need pIC50 of CCOC(=O)CC(=O)Nc1ccc(Cl)cc1S(=O)(=O)n1cccc1C(=O)OCC , thanks.
Reply | < 4.70

Ask | May I ask what pIC50 has been recorded for CC(C)OC(=O)c1cccn1S(=O)(=O)c1cc(Cl)ccc1N ?
Reply | 4.85

Ask | Given the molecule CCOC(=O)c1cccn1S(=O)(=O)c1cc(C)ccc1[N+](=O)[O-] , what is its reported pIC50?
Reply | < 4.70

Ask | Need pIC50 of CCOC(=O)c1cccn1S(=O)(=O)c1cc(C)ccc1N , thanks.
Reply | < 4.70

Ask | Look up pIC50: CCOC(=O)c1cccn1S(=O)(=O)c1cc(Cl)ccc1NC(C)=O
Reply | < 4.70

Ask | Need pIC50, item CCOC(=O)c1cccn1S(=O)(=O)c1cc(Cl)ccc1NC(=O)CC
Reply | < 4.70

Value source: ChEMBL document CHEMBL1129665
